The measurements presented in this section are drawn from ChEMBL document CHEMBL3774304.

# Experimental system: Epidermal growth factor receptor (Homo sapiens, UniProt P00533)
# Format: protein assay
# Sequence (P00533 25-1210 limits assumed, change not shown): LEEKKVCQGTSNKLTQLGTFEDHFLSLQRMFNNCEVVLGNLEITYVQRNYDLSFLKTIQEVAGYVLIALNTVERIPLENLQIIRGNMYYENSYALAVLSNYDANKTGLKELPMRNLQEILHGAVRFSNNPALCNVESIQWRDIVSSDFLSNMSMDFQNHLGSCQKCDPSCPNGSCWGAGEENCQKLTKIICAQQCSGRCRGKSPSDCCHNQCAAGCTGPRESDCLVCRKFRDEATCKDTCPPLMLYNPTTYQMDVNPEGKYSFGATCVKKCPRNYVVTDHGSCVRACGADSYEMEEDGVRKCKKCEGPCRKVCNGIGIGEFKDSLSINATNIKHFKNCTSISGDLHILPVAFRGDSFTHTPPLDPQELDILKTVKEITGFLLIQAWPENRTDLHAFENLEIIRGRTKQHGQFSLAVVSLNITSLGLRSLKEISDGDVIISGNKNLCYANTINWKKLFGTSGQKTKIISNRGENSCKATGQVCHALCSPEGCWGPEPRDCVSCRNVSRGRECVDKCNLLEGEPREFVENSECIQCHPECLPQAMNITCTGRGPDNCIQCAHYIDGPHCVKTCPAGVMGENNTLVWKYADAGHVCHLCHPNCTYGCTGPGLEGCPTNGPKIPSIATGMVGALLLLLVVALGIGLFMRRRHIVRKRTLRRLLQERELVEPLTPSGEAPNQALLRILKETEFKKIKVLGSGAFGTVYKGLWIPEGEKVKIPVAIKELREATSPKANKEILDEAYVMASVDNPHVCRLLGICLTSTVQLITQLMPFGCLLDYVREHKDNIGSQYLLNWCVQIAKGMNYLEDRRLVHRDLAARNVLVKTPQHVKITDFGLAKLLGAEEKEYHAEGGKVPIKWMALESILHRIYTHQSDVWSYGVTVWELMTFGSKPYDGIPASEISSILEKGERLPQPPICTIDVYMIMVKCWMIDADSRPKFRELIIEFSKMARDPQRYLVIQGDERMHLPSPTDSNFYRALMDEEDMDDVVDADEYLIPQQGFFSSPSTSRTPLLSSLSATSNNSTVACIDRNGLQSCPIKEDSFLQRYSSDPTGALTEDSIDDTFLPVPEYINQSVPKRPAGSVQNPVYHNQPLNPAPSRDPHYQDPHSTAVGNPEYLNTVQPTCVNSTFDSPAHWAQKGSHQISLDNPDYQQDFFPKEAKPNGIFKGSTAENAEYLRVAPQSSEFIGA
# Description: Inhibition of EGFR-T790M/L858 mutant (unknown origin) preincubated for 30 mins followed by addition of 2x ATP-substrate mixture measured after 1 hr by Kinase Glo luminescent kinase assay
pIC50: −log10 of the molar value.
Measured metric: pIC50

(A) O=C1COc2cc3ncnc(Nc4ccc(F)c(Cl)c4)c3cc2N1CCCN1CCOCC1
(B) C#Cc1cccc(Nc2ncnc3cc4c(cc23)N(CCCN2CCOCC2)C(=O)CO4)c1
Problem: Hi there! Just curious which has the higher pIC50 between A and B . Identify your selection by its label.
Result: A
(A: 6.47, B: 6.06)

---

IC50 values recorded for Epidermal growth factor receptor (Homo sapiens)
Measured metric: IC50 (nM)

These recorded examples may help you get a feel for the data.
Smiles code	Experimental system	IC50 / nM
Cc1ccc(Nc2ncnc3cc4c(cc23)N(CCCN2CCOCC2)C(=O)CO4)cc1Cl	Epidermal growth factor receptor (Homo sapiens)	163
O=C1COc2cc3ncnc(Nc4ccc(Cl)cc4)c3cc2N1CCCN1CCOCC1	Epidermal growth factor receptor (Homo sapiens)	354
Cc1cccc(Nc2ncnc3cc4c(cc23)N(CCCN2CCOCC2)C(=O)CO4)c1	Epidermal growth factor receptor (Homo sapiens)	187
C#Cc1cccc(Nc2ncnc3cc4c(cc23)N(CCCN2CCCCC2)C(=O)CO4)c1	Epidermal growth factor receptor (Homo sapiens)	211
O=C1COc2cc3ncnc(Nc4ccccc4)c3cc2N1CCCN1CCOCC1	Epidermal growth factor receptor (Homo sapiens)	519

(I) C#Cc1cccc(Nc2ncnc3cc4c(cc23)N(CCCN2CCOCC2)C(=O)CO4)c1
(II) O=C1COc2cc3ncnc(Nc4cccc(C(F)(F)F)c4)c3cc2N1CCCN1CCOCC1
Problem: For the pair I and II , which entry has the numerically smaller recorded IC50? Select an item and report its label.
Result: I
